Target: LmrR (Lactococcus cremoris, UniProt A2RI36)
Construct: C-terminal His6-tagged LmrR (homodimer)
Sequence (A2RI36 entry or part of it): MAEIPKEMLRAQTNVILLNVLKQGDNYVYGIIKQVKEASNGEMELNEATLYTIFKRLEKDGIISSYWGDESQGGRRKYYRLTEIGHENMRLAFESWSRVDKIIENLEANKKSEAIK
Test: ITC ([…] stoichiometry, […] °C); supported by NMR titration
observedProperty: Kd (nM)

compound="Cc1cc2nc3c(=O)[nH]c(=O)nc-3n(C[C@H](O)[C@H](O)[C@H](O)CO)c2cc1C [riboflavin]" unitinfo=nM observedmeasurement=330
